FYI, the data here is from PubChem BioAssay (NCI).

System: NCI-H23 lung
Test: NCI tumour cell line growth inhibition, 48 h; in the data active means GI50 below about 0.43 µM; inactive means the rest
Pick one: yes (1) for active, no (0) for inactive

Please review the entries below; each comes with its answer.
CC1(C)N=C(N)N=C(N)N1c1cccc(CCCCc2ccc(Cl)c(S(=O)(=O)F)c2)c1 | no (0)
CC[C@H](C)[C@H](NC(=O)c1ncccn1)C(=O)N(C)[C@H](C[C@@H](OC(C)=O)c1nc(C(=O)N[C@@H](Cc2ccccc2)C[C@H](C)C(=O)OC)cs1)C(C)C | no (0)

Test call, this compound: "COc1cc(OCCCN2CCCC2)ccc1Nc1ncc(Cl)c(Nc2ccccc2P(C)(C)=O)n1" no (0)

Test call, this compound: CO[C@H]1/C=C/O[C@@]2(C)Oc3c(C)c(O)c4c(O)c(c(/C=N/N5C(C)CN(Cc6ccc(C#N)cc6)CC5C)c(O)c4c3C2=O)NC(=O)/C(C)=C\C=C\[C@H](C)[C@H](O)[C@@H](C)[C@@H](O)[C@@H](C)[C@H](OC(C)=O)[C@@H]1C (stereo not given in full) no (0)
